Experiment: Intranasal PK profiles of conjugated oxymorphone in rats (released oxymorphone in plasma by LC-MS/MS)
Assay type: in vivo
Settings: conjugate equivalent to 0.2 mg/kg freebase oxymorphone, released oxymorphone in plasma
Parameter Measured: Cmax (ng/mL)

compound=CN1CC[C@]23c4c5ccc(O)c4O[C@H]2C(OC(=O)c2cc(-c4ccc(F)cc4F)ccc2O)=CC[C@@]3(O)[C@H]1C5 unit_abbrev=ng/mL data_value=39.1
compound=CN1CC[C@]23c4c5ccc(OC(=O)c6ccccc6O)c4O[C@H]2C(=O)CC[C@@]3(O)[C@H]1C5 unit_abbrev=ng/mL data_value=276.1
compound=COc1ccc(C(=O)Oc2ccc3c4c2O[C@H]2C(=O)CC[C@@]5(O)[C@@H](C3)N(C)CC[C@]425)cc1 unit_abbrev=ng/mL data_value=244.9
compound=CN1CC[C@]23c4c5ccc(OC(=O)c6cc(-c7ccc(F)cc7F)ccc6O)c4O[C@H]2C(=O)CC[C@@]3(O)[C@H]1C5 unit_abbrev=ng/mL data_value=151.5
compound="COc1ccc(C(=O)OC2=CCC3(O)C4Cc5ccc(OC(=O)c6ccc(OC)cc6)c6c5C3(CCN4C)C2O6)cc1 (stereo not drawn)" unit_abbrev=ng/mL data_value=33.5
compound="CN1CC[C@]23c4c5ccc(O)c4O[C@H]2C(OC(=O)c2ccccc2)=CC[C@@]3(O)[C@H]1C5 [Conjugate 6-Bz-OM]" unit_abbrev=ng/mL data_value=145.2

Measured values drawn from patent US10463660B2 for this set.
